Target: Organic anion transporter 3 (Mus musculus, UniProt O88909)
Sequence (O88909 whole entry): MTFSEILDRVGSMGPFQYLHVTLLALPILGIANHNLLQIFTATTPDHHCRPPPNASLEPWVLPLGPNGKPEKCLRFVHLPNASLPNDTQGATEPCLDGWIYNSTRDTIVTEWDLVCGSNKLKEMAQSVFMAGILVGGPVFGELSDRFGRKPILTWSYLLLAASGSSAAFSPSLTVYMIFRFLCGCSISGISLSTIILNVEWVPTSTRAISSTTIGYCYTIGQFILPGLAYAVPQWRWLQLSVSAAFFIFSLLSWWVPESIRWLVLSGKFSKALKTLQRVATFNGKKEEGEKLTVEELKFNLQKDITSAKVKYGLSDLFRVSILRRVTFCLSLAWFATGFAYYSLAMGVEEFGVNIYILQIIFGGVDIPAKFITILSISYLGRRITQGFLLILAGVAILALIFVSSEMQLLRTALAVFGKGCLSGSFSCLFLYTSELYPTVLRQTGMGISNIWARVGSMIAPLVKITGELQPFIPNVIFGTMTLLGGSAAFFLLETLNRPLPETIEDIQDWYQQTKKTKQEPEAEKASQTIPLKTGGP
Assay: Inhibition of mouse OAT3 expressed in CHO cells assessed as inhibition of fluorescein uptake over 20 mins
pIC50: −log10 of the molar value.
recorded_endpoint: pIC50

The examples below pair each entry with its known result.
[[record]]
input_smiles = "CCCN(CCC)S(=O)(=O)c1ccc(C(=O)O)cc1"
assayed_system = "Organic anion transporter 3 (Mus musculus, UniProt O88909)"
recorded_number = 5.52

[[record]]
input_smiles = "CO[C@@]1(NC(=O)Cc2cccs2)C(=O)N2C(C(=O)O)=C(COC(N)=O)CS[C@@H]21"
assayed_system = "Organic anion transporter 3 (Mus musculus, UniProt O88909)"
recorded_number = 4.24

[[record]]
input_smiles = "CC1(C)S[C@@H]2[C@H](NC(=O)COc3ccccc3)C(=O)N2[C@H]1C(=O)O"
assayed_system = "Organic anion transporter 3 (Mus musculus, UniProt O88909)"
recorded_number = 4.31

[[record]]
input_smiles = "CC1(C)S[C@@H]2[C@H](NC(=O)[C@H](C(=O)O)c3ccsc3)C(=O)N2[C@H]1C(=O)O"
assayed_system = "Organic anion transporter 3 (Mus musculus, UniProt O88909)"
recorded_number = 3.63

[[record]]
input_smiles = "Cc1onc(-c2ccccc2Cl)c1C(=O)N[C@@H]1C(=O)N2[C@@H]1SC(C)(C)[C@@H]2C(=O)O"
assayed_system = "Organic anion transporter 3 (Mus musculus, UniProt O88909)"
recorded_number = 4.51

[[record]]
input_smiles = "Cc1onc(-c2c(Cl)cccc2Cl)c1C(=O)N[C@@H]1C(=O)N2[C@@H]1SC(C)(C)[C@@H]2C(=O)O"
assayed_system = "Organic anion transporter 3 (Mus musculus, UniProt O88909)"
recorded_number = 4.78

[[record]]
input_smiles = "CC1(C)S[C@@H]2[C@H](NC(=O)Cc3ccccc3)C(=O)N2[C@H]1C(=O)O"
assayed_system = "Organic anion transporter 3 (Mus musculus, UniProt O88909)"
recorded_number = 4.05

[[record]]
input_smiles = "CC(=O)OCC1=C(C(=O)O)N2C(=O)[C@@H](NC(=O)Cc3cccs3)[C@H]2SC1"
assayed_system = "Organic anion transporter 3 (Mus musculus, UniProt O88909)"
recorded_number = 4.48

[[record]]
input_smiles = "Cc1onc(-c2ccccc2)c1C(=O)N[C@@H]1C(=O)N2[C@@H]1SC(C)(C)[C@@H]2C(=O)O"
assayed_system = "Organic anion transporter 3 (Mus musculus, UniProt O88909)"
recorded_number = 4.46

[[record]]
input_smiles = "CO/N=C(\\C(=O)N[C@@H]1C(=O)N2C(C(=O)O)=C(CSC(=O)c3ccco3)CS[C@H]12)c1csc(N)n1"
assayed_system = "Organic anion transporter 3 (Mus musculus, UniProt O88909)"
recorded_number = 4.45


(1) CO[C@@]1(NC(=O)CSCC#N)C(=O)N2C(C(=O)O)=C(CSc3nnnn3C)CS[C@@H]21
(2) CCOc1ccc2ccccc2c1C(=O)N[C@@H]1C(=O)N2[C@@H]1SC(C)(C)[C@@H]2C(=O)O
Challenge: Lowest pIC50? choose 1 or 2 Respond using the label that marks the chosen record.
Response given: 1
